protocol summary: acid dissociation constant (pKa) of the conjugate acid of the base component
cond: water
readout label: pKa
Provide a numeric answer; units are not to be included.

Example results:
                                   compound  readout_label  reported
0          CCCCN1CCOCC1 [N-butylmorpholine]            pKa       7.5
1  CC(C)CN(CC(C)C)CC(C)C [triisobutylamine]            pKa       9.5

Please examine the following record next.
Task: Look up pKa: CCCCNCCCC [dibutylamine]
Output: 11.3
